Molecular target: T1, GST-BAP1-UCH (1–250 aa) (human, UniProt Q92560 1-250)
T1 sequence (looked up): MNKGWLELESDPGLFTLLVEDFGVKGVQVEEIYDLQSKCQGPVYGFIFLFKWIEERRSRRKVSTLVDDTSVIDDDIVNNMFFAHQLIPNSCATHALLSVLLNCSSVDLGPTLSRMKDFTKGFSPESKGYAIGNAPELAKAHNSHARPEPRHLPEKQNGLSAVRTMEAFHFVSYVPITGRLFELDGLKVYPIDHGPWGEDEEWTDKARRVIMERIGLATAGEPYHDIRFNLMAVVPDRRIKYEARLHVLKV
Test: pull-down
endpoint_name: binding result

[[record]]
binder = "His-BAP1-ULD F660P (domain or fragment, human, UniProt Q92560 601-729, looked up) KEVVEATDSREKTGMVRPGEPLSGEKYSPKELLALLKCVEAEIANYEACLKEEVEKRKKPKIDDQRRTHNYDEFICTFISMLAQEGMLANLVEQNISVRRRQGVSIGRLHKQRKPDRRKRSRPYKAKRQ"
endpoint_name = "binding result"
result = "binds"

[[record]]
binder = "His-BAP1-ULD L650P (domain or fragment, human, UniProt Q92560 601-729, looked up) KEVVEATDSREKTGMVRPGEPLSGEKYSPKELLALLKCVEAEIANYEACPKEEVEKRKKFKIDDQRRTHNYDEFICTFISMLAQEGMLANLVEQNISVRRRQGVSIGRLHKQRKPDRRKRSRPYKAKRQ"
endpoint_name = "binding result"
result = "binds"

[[record]]
binder = "His-BAP1-ULD (601–729) WT (domain or fragment, human, UniProt Q92560 601-729, looked up) KEVVEATDSREKTGMVRPGEPLSGEKYSPKELLALLKCVEAEIANYEACLKEEVEKRKKFKIDDQRRTHNYDEFICTFISMLAQEGMLANLVEQNISVRRRQGVSIGRLHKQRKPDRRKRSRPYKAKRQ"
endpoint_name = "binding result"
result = "binds"

[[record]]
binder = "His-BAP1-ULD ∆K637-C638 (sub of N) (domain or fragment, human, UniProt Q92560 601-729, looked up) KEVVEATDSREKTGMVRPGEPLSGEKYSPKELLALLNVEAEIANYEACLKEEVEKRKKFKIDDQRRTHNYDEFICTFISMLAQEGMLANLVEQNISVRRRQGVSIGRLHKQRKPDRRKRSRPYKAKRQ"
endpoint_name = "binding result"
result = "binds"

